- TESTED SYSTEM: human CK1ε (Homo sapiens)
- Construct: purchased Invitrogen, Karlsruhe, Germany
- Sequence (P49674 whole entry): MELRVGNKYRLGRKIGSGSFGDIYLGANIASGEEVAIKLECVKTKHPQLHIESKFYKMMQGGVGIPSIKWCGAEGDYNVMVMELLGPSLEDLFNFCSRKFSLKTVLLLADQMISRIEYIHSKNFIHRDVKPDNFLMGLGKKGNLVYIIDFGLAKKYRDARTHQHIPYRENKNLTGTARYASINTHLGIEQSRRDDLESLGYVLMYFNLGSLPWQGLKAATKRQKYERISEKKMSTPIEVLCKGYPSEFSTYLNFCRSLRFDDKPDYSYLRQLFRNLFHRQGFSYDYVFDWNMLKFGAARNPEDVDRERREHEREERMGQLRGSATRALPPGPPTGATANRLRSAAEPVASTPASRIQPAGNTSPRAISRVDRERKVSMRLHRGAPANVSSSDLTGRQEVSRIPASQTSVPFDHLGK
- ASSAY PROCEDURE: In vitro kinase assay, CK1ε
- Assay type: biochemical
- DETAILS: 0.01 mM ATP, substrate GST-mouse p53^1-64; mean ± SD
ENDPOINT NAME: IC50 (µM)
Numbers only here, please. The scale is µM.

query: Record request: IC50 value, item COC(=O)c1ccc2[nH]c(NC(=O)c3csc(NC(=O)c4ccccc4OC(F)(F)F)n3)nc2c1 [Compound 1]
result: 0.496

---

- TESTED SYSTEM: GST-rat CK1δ (Rattus norvegicus)
- Construct: made in house; host or cells: bacteria (pGEX-2T)
- ASSAY PROCEDURE: In vitro kinase assay, GST-rat CK1δ
- Format: biochemical
- DETAILS: 0.01 mM ATP, substrate GST-mouse p53^1-64; mean ± SD
ENDPOINT NAME: IC50 (µM)
Numbers only here, please. The scale is µM.

>>> endpoint_result("O=C(Nc1nc2cc(Cl)c(F)cc2[nH]1)c1csc(NC(=O)c2ccccc2OC(F)(F)F)n1")
0.042

query: Record request: IC50 value, item O=C(Nc1nc2ccccc2o1)c1csc(NC(=O)c2ccccc2OC(F)(F)F)n1
result: 0.991

query: Record request: IC50 value, item O=C(Nc1nc2ccc(C(F)(F)F)cc2[nH]1)c1csc(NC(=O)c2ccco2)n1
result: 1.04

query: Record request: IC50 value, item O=C(Nc1nc2ccccc2s1)c1csc(NC(=O)c2ccccc2OC(F)(F)F)n1
result: 1.19

---

- TESTED SYSTEM: GST-rat CK1δ (Rattus norvegicus, UniProt Q06486)
- Construct: made in house; host or cells: bacteria (pGEX-2T)
- ASSAY PROCEDURE: In vitro kinase assay, GST-rat CK1δ
- Format: biochemical
- DETAILS: symbol; tested range 10–0.005 μM
ENDPOINT NAME: IC50

query: Record request: IC50 value, item Cn1c(NC(=O)c2csc(NC(=O)c3ccccc3OC(F)(F)F)n2)nc2ccccc21
result: > 10 µM

---

- TESTED SYSTEM: CK1δkd (Rattus norvegicus, UniProt Q06486)
- Construct: Recombinant CK1δ kinase domain (CK1δkd, NEB, Frankfurt am Main, Germany); purchased NEB, Frankfurt am Main, Germany
- ASSAY PROCEDURE: In vitro kinase assay, CK1δ kinase domain
- Format: biochemical
- DETAILS: kinase assays using a CK1 specific substrate
ENDPOINT NAME: activity against CK1δkd (in words, SAR discussion)

>>> endpoint_result("COC(=O)c1ccc2[nH]c(NC(=O)c3csc(NC(=O)c4ccccc4OC(F)(F)F)n3)nc2c1")
"diminished activity"
>>> endpoint_result("Cn1c(NC(=O)c2csc(NC(=O)c3ccccc3OC(F)(F)F)n2)nc2ccccc21")
"lost"
>>> endpoint_result("CS(=O)(=O)c1ccc2[nH]c(NC(=O)c3csc(NC(=O)c4ccccc4OC(F)(F)F)n3)nc2c1")
"diminished activity"

---

- TESTED SYSTEM: GST-mouse CK1δTV1 (Mus musculus)
- Construct: made in house; host or cells: bacteria (pGEX-2T)
- ASSAY PROCEDURE: In vitro kinase assay, GST-mouse CK1δTV1
- Type: biochemical
- DETAILS: enzyme induced for 14 h at 15°C; read-out: IC50 CK1δTV1, 14 h
ENDPOINT NAME: IC50

query: Record request: IC50 value, item O=C(Nc1nc2ccc(C(F)(F)F)cc2[nH]1)c1csc(NC(=O)c2ccccc2OC(F)(F)F)n1
result: 23 nM

---

- TESTED SYSTEM: GST-mouse CK1δTV2 (Mus musculus)
- Construct: made in house; host or cells: bacteria (pGEX-2T)
- Sequence (Q9DC28 1-409 isoform Q9DC28-2): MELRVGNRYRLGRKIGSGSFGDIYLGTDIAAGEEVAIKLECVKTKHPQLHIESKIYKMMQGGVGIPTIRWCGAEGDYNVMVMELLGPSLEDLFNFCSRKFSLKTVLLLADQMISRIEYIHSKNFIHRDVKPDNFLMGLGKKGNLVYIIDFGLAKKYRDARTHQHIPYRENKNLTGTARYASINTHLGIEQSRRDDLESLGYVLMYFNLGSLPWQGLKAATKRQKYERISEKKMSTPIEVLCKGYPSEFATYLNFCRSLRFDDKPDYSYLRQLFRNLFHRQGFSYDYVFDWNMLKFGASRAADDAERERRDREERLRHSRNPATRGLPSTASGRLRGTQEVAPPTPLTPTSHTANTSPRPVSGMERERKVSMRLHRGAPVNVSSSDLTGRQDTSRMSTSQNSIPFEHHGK
- ASSAY PROCEDURE: In vitro kinase assay, GST-mouse CK1δTV2
- Format: biochemical
- DETAILS: IC50 CK1δTV2, 2 h, enzyme induced for 2 h at 37°C
ENDPOINT NAME: IC50
Write the figure, then the unit, nothing else.

query: GST-mouse CK1δTV2 (Mus musculus) / IC50 / O=C(Nc1nc2ccc(C(F)(F)F)cc2[nH]1)c1csc(NC(=O)c2ccccc2OC(F)(F)F)n1 [Compound 5] : value?
result: 64 nM

---

- TESTED SYSTEM: GST-mouse CK1δTV2 (Mus musculus)
- Construct: made in house; host or cells: bacteria (pGEX-2T)
- ASSAY PROCEDURE: In vitro kinase assay, GST-mouse CK1δTV2
- Assay type: biochemical
- DETAILS: enzyme induced for 14 h at 15°C; read-out: IC50 CK1δTV2, 14 h
ENDPOINT NAME: pIC50
// pIC50: -log10(molar conc.)

query: Record request: pIC50 value, item O=C(Nc1nc2ccc(C(F)(F)F)cc2[nH]1)c1csc(NC(=O)c2ccccc2OC(F)(F)F)n1 [Compound 5]
result: 7.37

---

- TESTED SYSTEM: CK1δkd (Rattus norvegicus)
- Construct: Recombinant CK1δ kinase domain (CK1δkd, NEB, Frankfurt am Main, Germany); purchased NEB, Frankfurt am Main, Germany
- Sequence (Q06486 9-277 limits assumed): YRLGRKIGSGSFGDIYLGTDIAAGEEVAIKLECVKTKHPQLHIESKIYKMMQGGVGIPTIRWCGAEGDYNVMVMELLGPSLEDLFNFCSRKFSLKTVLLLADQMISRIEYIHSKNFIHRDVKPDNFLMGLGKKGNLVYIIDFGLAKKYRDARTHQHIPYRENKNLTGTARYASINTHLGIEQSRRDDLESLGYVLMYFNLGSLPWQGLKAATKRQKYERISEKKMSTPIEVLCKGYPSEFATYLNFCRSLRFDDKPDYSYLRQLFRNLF
- ASSAY PROCEDURE: In vitro kinase assay, CK1δ kinase domain
- Format: biochemical
- DETAILS: 0.01 mM ATP, substrate GST-mouse p53^1-64; mean ± SD
ENDPOINT NAME: IC50

Take a look at these entries with their results.
>>> endpoint_result("O=C(Nc1nc2ccccc2o1)c1csc(NC(=O)c2ccccc2OC(F)(F)F)n1 [Compound 10]")
"0.647 µM"
>>> endpoint_result("O=C(Nc1nc2cc(Cl)c(F)cc2[nH]1)c1csc(NC(=O)c2ccccc2OC(F)(F)F)n1 [Compound 6]")
"0.085 µM"
>>> endpoint_result("O=C(Nc1nc2ccccc2[nH]1)c1csc(NC(=O)c2ccccc2OC(F)(F)F)n1 [Compound 8]")
"1.12 µM"

Next item in the queue.
query: Record request: IC50 value, item O=C(Nc1nc2ccc(C(F)(F)F)cc2[nH]1)c1csc(NC(=O)c2ccco2)n1 [Compound 7]
result: 0.542 µM

---

- TESTED SYSTEM: GST-rat CK1δ (Rattus norvegicus, UniProt Q06486)
- Construct: made in house; host or cells: bacteria (pGEX-2T)
- ASSAY PROCEDURE: In vitro kinase assay, GST-rat CK1δ
- Type: biochemical
- DETAILS: 0.01 mM ATP, substrate GST-mouse p53^1-64; mean ± SD
ENDPOINT NAME: IC50 (µM)
Numbers only here, please. The scale is µM.

>>> endpoint_result("O=C(Nc1nc2ccccc2[nH]1)c1csc(NC(=O)c2ccccc2OC(F)(F)F)n1")
0.935
>>> endpoint_result("O=C(Nc1nc(C(=O)Nc2nc3ccc(C(F)(F)F)cc3[nH]2)cs1)c1ccncc1")
0.326
>>> endpoint_result("COC(=O)c1ccc2[nH]c(NC(=O)c3csc(NC(=O)c4ccccc4OC(F)(F)F)n3)nc2c1")
1.97

query: GST-rat CK1δ (Rattus norvegicus, UniProt Q06486) / IC50 / CS(=O)(=O)c1ccc2[nH]c(NC(=O)c3csc(NC(=O)c4ccccc4OC(F)(F)F)n3)nc2c1 : value?
result: 5.19

---

- TESTED SYSTEM: GST-mouse CK1δTV1 (Mus musculus, UniProt Q9DC28)
- Construct: made in house; host or cells: bacteria (pGEX-2T)
- ASSAY PROCEDURE: In vitro kinase assay, GST-mouse CK1δTV1
- Type: biochemical
- DETAILS: IC50 CK1δTV1, 2 h, enzyme induced for 2 h at 37°C
ENDPOINT NAME: IC50 (nM)
Numbers only here, please. The scale is nM.

query: Record request: IC50 value, item O=C(Nc1nc2ccc(C(F)(F)F)cc2[nH]1)c1csc(NC(=O)c2ccccc2OC(F)(F)F)n1
result: 66
